- run-description: cAMP Responsive Elements (CRE) small molecule antagonists, cell-based qHTS assay (AID 1963591); note: % is set by controls: 0 for no effect and ±100 for the full control effect
- stated-conditions: CRE-bla HEK293T, beta-lactamase FRET ratio; series mostly up to 92.4 µM
- Source text: U.S. Tox21 Program National Center for Advancing Translational Sciences [NCATS] Division of Preclinical Innovation [DPI] U.S. Environmental Protection Agency [EPA] National Institutes of Environmental Health Sciences [NIEHS] National Toxicology Program [NTP] U.S. Food and Drug Administration [FDA] […] The activation of the report gene under culture conditions can be detected by fluorescence intensity. […]
Results filed as inconclusive are left out. Activity calls are given as the source filed them. Calls come from the whole dose curve; as a rule, active = well fitted inhibition curve with a large enough effect in the signal ratio in the repeat runs (not every such curve was filed as active); inconclusive = weak or mixed curves, or effect the other way; inactive = flat fitted curve, though single readings scatter; the % refers to the signal ratio.
// classify into yes (active), no (inactive)

Worked examples follow.
[[record]]
compound = "C=CN1CCCC1=O"
answer_label = "no"

[[record]]
compound = "c1ccc2cc3c(ccc4ccccc43)cc2c1"
answer_label = "no"

[[record]]
compound = "CCCCC(CC)COC(=O)CS (centres undefined)"
answer_label = "no"


**Q:** Status in this test for O=c1cc[nH]c(=S)[nH]1 ?
**A:** no

**Q:** Can you look up the reported call for CCCCCCCCCC for me?
**A:** no

**Q:** Can you look up the reported call for Nc1ccc2c(O)cc(S(=O)(=O)O)cc2c1 for me?
**A:** no

**Q:** # lookup: test call for NCCOCCO
**A:** no

**Q:** Lab log entry: CC(C)(C#N)c1cc(Cn2cncn2)cc(C(C)(C)C#N)c1 — outcome as called in the assay?
**A:** no

----------
- run-description: p53 small molecule agonists, cell-based qHTS assay: qHTS cell viability counter screen (AID 1963581); note: % is set by controls: 0 for no effect and ±100 for the full control effect; nearly all actives have a fitted effect of over 45% in size
- stated-conditions: p53RE-bla HCT-116 viability, ATP luminescence, 16 h; series mostly up to 66 µM
Records with an inconclusive call do not appear. The source made the active and inactive calls. Calls follow the shape of the full dose curve.
Can you answer with just one of these options? class 1 (active), class 0 (inactive)

[[record]]
compound = "COc1ccc(NC(C)=O)cc1N"
answer_label = "class 0"


Next up:
**Q:** So what was the verdict on CC1(C)S[C@@H]2[C@H](NC(=O)[C@H](N)c3ccccc3)C(=O)N2[C@H]1C(=O)O in this test?
**A:** class 0

----------
- run-description: p53 small molecule agonists, cell-based qHTS assay with rat liver microsomes: qHTS cell viability counter screen (AID 1963580); note: % is set by controls: 0 for no effect and ±100 for the full control effect; nearly all actives have a fitted effect of over 45% in size
- stated-conditions: p53RE-bla HCT-116 + rat microsomes, ATP viability, 16 h; series mostly up to 66 µM
Results filed as inconclusive are left out. Activity calls are given as the source filed them. The call rests on the fitted dose curve.
// allowed return values: 1 (yes) (active), 0 (no) (inactive)

See these solved cases before continuing.
[[record]]
molecule = "COc1ccc(OC)cc1"
answer_label = "0 (no)"

[[record]]
molecule = "COc1cc(OC)c(C(=O)CCCN2CCCC2)c(OC)c1"
answer_label = "0 (no)"

[[record]]
molecule = "c1ccc2c(c1)c1cccc3ccc4cccc2c4c31"
answer_label = "0 (no)"

[[record]]
molecule = "Cc1ccc([N+](=O)[O-])cc1N"
answer_label = "0 (no)"

[[record]]
molecule = "CCc1cc(C(N)=S)ccn1"
answer_label = "0 (no)"

[[record]]
molecule = "FC(F)(F)c1ccc(Cl)c(Cl)c1"
answer_label = "0 (no)"

[[record]]
molecule = "Cc1cccc(O)c1"
answer_label = "0 (no)"

[[record]]
molecule = "Cc1cc(=O)[nH]c(=S)[nH]1"
answer_label = "0 (no)"

[[record]]
molecule = "CC(C)CCCCCCCOC(=O)CCCCC(=O)OCCCCCCCC(C)C"
answer_label = "0 (no)"

[[record]]
molecule = "C=CCCCCCCCCCC"
answer_label = "0 (no)"


**Q:** Kindly provide the recorded test outcome for the following molecule: Cc1cc(Cc2ccc(N)c(C)c2)ccc1N
**A:** 0 (no)

**Q:** For this molecule, state the assay outcome: CCCCOC(=O)c1ccc(O)cc1
**A:** 0 (no)

**Q:** Hi, do you know how C=CC(C)CCCC(C)(C)O (stereo not drawn) came out in this test?
**A:** 0 (no)

**Q:** Which outcome did this test record for the molecule CC1(C)NC(=O)N(c2ccc([N+](=O)[O-])c(C(F)(F)F)c2)C1=O ?
**A:** 0 (no)

**Q:** Hello, I am checking results. What call was entered for Cc1ccc([N+](=O)[O-])cc1S(=O)(=O)O ?
**A:** 0 (no)

**Q:** Field: outcome | Entry: O=S(=O)(O)c1ccc2ccccc2c1
**A:** 0 (no)

**Q:** Outcome? c1ccc(Nc2ccccc2)cc1
**A:** 0 (no)

----------
- run-description: Nuclear factor erythroid 2-related factor 2/antioxidant responsive element (Nrf2/ARE) small molecule agonists: qHTS cell viability counter screen in human keratinocytes (AID 1919968); note: nearly all actives have a fitted effect of over 55% in size
- stated-conditions: KeratinoSens HaCaT ARE cells viability, CellTiter-Fluor, 24 h; series mostly up to 92.4 µM
Inconclusive results are not listed. Active and inactive are the calls of the source. Calls come from the whole dose curve; as a rule, active = well fitted cell-killing curve with a large enough effect in the repeat runs; inconclusive = weak or mixed curves, or effect the other way; inactive = flat fitted curve, though single readings scatter.
# output must be one of active, inactive

# example entries with known answers
[[record]]
input_smiles = "Nc1cc([N+](=O)[O-])ccc1C(=O)O"
answer_label = "inactive"

[[record]]
input_smiles = "COC(=O)CCCC(=O)OC"
answer_label = "inactive"

[[record]]
input_smiles = "CCCCNC(=O)NS(=O)(=O)c1ccc(N)cc1"
answer_label = "inactive"

[[record]]
input_smiles = "O=c1[nH]c(=O)n([C@H]2C[C@H](O)[C@@H](CO)O2)cc1Br"
answer_label = "inactive"


**Q:** GET /call?item= Cc1cc(C)c(C)cc1C returns the recorded outcome of this test.
**A:** inactive

**Q:** Hey, what did the test say about CC(=O)c1nccs1 ?
**A:** inactive

**Q:** In this assay, the call recorded for NC(=NCCCCCCN=C(N)/N=C(\N)Nc1ccc(Cl)cc1)/N=C(\N)Nc1ccc(Cl)cc1 was what?
**A:** active

**Q:** Short answer needed: outcome of this test for O=c1cc[nH]c(=O)[nH]1 ?
**A:** inactive

----------
- system-tested: 5-hydroxytryptamine receptor 2A (Homo sapiens)
- run-description: 5-hydroxytryptamine receptor 2A (HTR2A) small molecule antagonists, cell-based qHTS assay (AID 1963586); note: nearly all actives have a fitted effect of over 45% in size
- stated-conditions: HTR2A-CHO cells, DOI-induced calcium flux, fluorescence; series mostly up to 61.5 µM
Results filed as inconclusive are left out. Active and inactive are the calls of the source. Calls follow the shape of the full dose curve.
Hi there, use one of these labels in your reply, thanks! yes = active, no = inactive

// known answers, use as guide
[[record]]
compound = "CCCCCCCC(=O)OC"
system_tested = "5-hydroxytryptamine receptor 2A (Homo sapiens)"
answer_label = "no"

[[record]]
compound = "Cc1ccc(S(=O)(=O)Oc2ccc(N=Nc3ccc(-c4ccc(N=Nc5c(O)ccc6cc(S(=O)(=O)O)cc(S(=O)(=O)O)c56)c(C)c4)cc3C)cc2)cc1"
system_tested = "5-hydroxytryptamine receptor 2A (Homo sapiens)"
answer_label = "no"

[[record]]
compound = "CNC[C@H](O)c1cccc(O)c1"
system_tested = "5-hydroxytryptamine receptor 2A (Homo sapiens)"
answer_label = "no"

[[record]]
compound = "Nc1ccc(Cl)cc1Cl"
system_tested = "5-hydroxytryptamine receptor 2A (Homo sapiens)"
answer_label = "no"

[[record]]
compound = "CC(C)(C)[C@@H](O)[C@@H](Cc1ccc(Cl)cc1)n1cncn1"
system_tested = "5-hydroxytryptamine receptor 2A (Homo sapiens)"
answer_label = "no"


**Q:** For CC(=O)c1ccccn1 , which call appears in the assay record?
**A:** no

**Q:** Recorded test call requested for C=CC[N+](C)(C)CC=C
**A:** no

**Q:** Status in this test for CCCCN(CCCC)CCCC ?
**A:** no

**Q:** How was CC(C)=CCO classified in this test?
**A:** no

**Q:** Answer briefly: the call reported for CC(=O)Nc1ccccc1 in this assay.
**A:** no

**Q:** Identify the outcome logged in this assay for the compound shown: CCCCC/C=C\C/C=C\CCCCCCCC(=O)O
**A:** no

**Q:** Lab log entry: O=C(O)c1ccc2c(c1)C(=O)OC2=O — outcome as called in the assay?
**A:** no

**Q:** Which outcome was assigned to O=C=Nc1ccc(Cc2ccc(N=C=O)cc2)cc1 in this test?
**A:** no

**Q:** Give the logged outcome of this assay for the following compound: O=c1n(CC2CO2)c(=O)n(CC2CO2)c(=O)n1CC1CO1 (centres undefined)
**A:** no

**Q:** What did this assay record as the result for Nc1cc(Cl)c(-c2cc(Cl)c(N)cc2Cl)cc1Cl ?
**A:** yes

----------
- run-description: Nuclear factor erythroid 2-related factor 2/antioxidant responsive element (Nrf2/ARE) small molecule agonists: qHTS cell viability counter screen in human keratinocytes (AID 1919968); note: nearly all actives have a fitted effect of over 55% in size
- stated-conditions: KeratinoSens HaCaT ARE cells viability, CellTiter-Fluor, 24 h; series mostly up to 92.4 µM
Results filed as inconclusive are left out. Calls of active or inactive are those of the source. Calls follow the shape of the dose curve; as a rule, active = well fitted cell-killing curve with a large enough effect in the repeat runs; inconclusive = weak or mixed curves, or effect the other way; inactive = flat fitted curve, though single readings scatter.
metric: outcome

[[record]]
input_smiles = "C[C@]12C=CC(=O)C=C1CC[C@@H]1[C@@H]2C(=O)C[C@@]2(C)[C@H]1CC[C@]2(O)C(=O)CO"
metric = "outcome"
measured = "inactive"

[[record]]
input_smiles = "Nc1ccc(S(=O)(=O)Nc2cnc3ccccc3n2)cc1"
metric = "outcome"
measured = "inactive"

[[record]]
input_smiles = "C[C@H]1C[C@H]2[C@@H]3CCC4=CC(=O)C=C[C@]4(C)[C@@]3(F)[C@@H](O)C[C@]2(C)[C@@]1(O)C(=O)CO"
metric = "outcome"
measured = "inactive"

